So I've got a bunch of molecules here, and I need their z-score values.
target_entity: Luciferin 4-monooxygenase (Photinus pyralis)
measurement_protocol: firefly luciferase enzyme inhibitors, primary screen, biochemical, luminescence, purified enzyme, 2006 set (AID 1141);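 note: cell-free assay with purified firefly luciferase at 100 ng per well in PBS; test concentration not given here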
cond: SteadyGlo luminescence, 30 min, higher = more signal, called active from +8 up or from −8 down
Just the number.

## Task Query z-score on Luciferin 4-monooxygenase (Photinus pyralis) for CC(C)CON=C1C[C@@H](O)[C@@H](O)[C@@H]2[C@@H]3C(=O)N(c4cccc(Oc5ccccc5)c4)C(=O)[C@@H]3CC[C@H]12
## Result 0.527

## Task Query z-score on Luciferin 4-monooxygenase (Photinus pyralis) for CCCNC(=O)OC[C@H]1O[C@H](CCON=C(C)CCN2CCc3nc(-c4ccccc4)c(-c4ccccc4)cc3C2)C=C[C@@H]1Oc1ccc(OC)cc1
## Result -0.076

## Task Query z-score on Luciferin 4-monooxygenase (Photinus pyralis) for CCCNC(=O)OC[C@H]1O[C@H](CCON=C(C)CCC(=O)OC[C@H]2O[C@H](C#Cc3ccccc3)C=C[C@@H]2Oc2ccc(C)cc2)C=C[C@@H]1Oc1ccc(OC)cc1
## Result 1.41

## Task Query z-score on Luciferin 4-monooxygenase (Photinus pyralis) for CC(C)=NOC[C@@H](O)COCc1ccco1
## Result -1.28

## Task Query z-score on Luciferin 4-monooxygenase (Photinus pyralis) for CC(C)C(=O)N[C@@H]1CCCN1C(=O)C=Cc1ccccc1
## Result -0.489

## Task Query z-score on Luciferin 4-monooxygenase (Photinus pyralis) for CC(C)=NOCc1ccc(-c2cn([C@@H]3COC[C@H]3O)nn2)cc1
## Result -1.12

## Task Query z-score on Luciferin 4-monooxygenase (Photinus pyralis) for COc1ccc(COC(=O)NN=C2C[C@@H](O)[C@@H](O)[C@@H]3[C@@H]4C(=O)N(C(C)(C)C)C(=O)[C@@H]4CC[C@H]23)cc1
## Result -1.08

## Task Query z-score on Luciferin 4-monooxygenase (Photinus pyralis) for CO[C@@H]1COC(=O)CC=C[C@H](C)COC(=O)[C@H](C)NC(=O)CC=C[C@H]1C
## Result -0.394
